Listing of recorded inhibition by entry.
- target or test system: UniProt:P30969
- Sequence (P30969 whole entry): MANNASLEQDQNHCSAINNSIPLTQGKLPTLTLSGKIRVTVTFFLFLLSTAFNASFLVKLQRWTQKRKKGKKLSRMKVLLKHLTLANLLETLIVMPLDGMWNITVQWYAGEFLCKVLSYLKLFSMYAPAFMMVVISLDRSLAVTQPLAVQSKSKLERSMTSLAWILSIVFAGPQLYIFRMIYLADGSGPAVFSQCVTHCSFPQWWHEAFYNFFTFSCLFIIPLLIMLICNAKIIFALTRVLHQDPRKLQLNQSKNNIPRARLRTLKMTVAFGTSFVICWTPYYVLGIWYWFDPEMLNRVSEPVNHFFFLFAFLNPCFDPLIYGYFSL
- protocol summary: In vitro antagonist activity at GNRHR in CD rat anterior pituitary gland assessed as inhibition of LH-RH-stimulated LH release at compound to LH-RH molar ratio of 200 after 4 hrs by radioimmunoassay
- run conditions: concentration not given here

# chem smiles, value unit, inhibition
data = [
    ("CC(C)C[C@H](NC(=O)[C@@H](Cc1ccc(O)cc1)NC(=O)[C@H](Cc1ccc(O)cc1)NC(=O)[C@H](CO)NC(=O)[C@H](Cc1c[nH]c2ccccc12)NC(=O)[C@@H](Cc1ccccc1)NC(=O)OCc1ccccc1)C(=O)N[C@@H](CCCNC(=N)N)C(=O)N1CCC[C@H]1C(=O)NCC(N)=O.Cl", "%", 83),
    ("CC(=O)O.CCNC(=O)[C@@H]1CCCN1C(=O)[C@H](CCCNC(=N)N)NC(=O)[C@H](CC(C)C)NC(=O)[C@@H](Cc1ccc(OC)cc1)NC(=O)[C@H](Cc1ccc(O)cc1)NC(=O)[C@H](CO)NC(=O)[C@H](Cc1c[nH]c2ccccc12)NC(=O)[C@H](COCc1ccccc1)NS(C)(=O)=O", "%", 75),
]
